Biological target: T1, IL1RAP on HEK-Blue IL1β / HEK-Blue IL33 reporter cells (UniProt Q9NPH3 21-570, limits assumed)
T1 sequence (looked up): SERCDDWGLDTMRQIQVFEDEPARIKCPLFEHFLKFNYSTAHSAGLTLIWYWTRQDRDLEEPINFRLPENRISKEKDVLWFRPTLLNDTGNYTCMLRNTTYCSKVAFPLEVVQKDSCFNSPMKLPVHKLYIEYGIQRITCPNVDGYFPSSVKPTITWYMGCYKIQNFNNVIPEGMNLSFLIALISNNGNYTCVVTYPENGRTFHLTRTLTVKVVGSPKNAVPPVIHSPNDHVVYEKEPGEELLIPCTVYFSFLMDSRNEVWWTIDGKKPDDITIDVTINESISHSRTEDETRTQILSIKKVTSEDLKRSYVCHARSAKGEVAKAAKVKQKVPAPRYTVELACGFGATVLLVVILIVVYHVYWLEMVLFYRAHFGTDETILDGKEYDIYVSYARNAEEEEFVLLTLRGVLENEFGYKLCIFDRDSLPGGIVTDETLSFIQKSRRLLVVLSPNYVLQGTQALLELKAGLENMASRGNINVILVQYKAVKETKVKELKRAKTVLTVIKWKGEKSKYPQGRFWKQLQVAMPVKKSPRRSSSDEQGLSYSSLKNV
Assay: cell-based or functional assay
# Max % Inhibition at 200 nM, HEK-BlueIL1β NFκB Reporter Assay listing for each entry below
Give the quantity in %, number only.

Here are 3 binders together with their reported answers.
{"binder": "STLX2045 (antibody, V domains shown, Purified from hybridoma of immunized Alivamab mice; intact IgG; captured on anti-mouse IgG Fc sensors in Octet; kappa light chain; also called 74804_45C18A) VH: EVQLVESGGGLVKPGGSLRLACAATGFTFSNVWMSWVRQGSGKGLEWVGRIKSKADGGTIDYAAPVKGRFTISRDDSKNTLYLQMNSLKTEDTAMYYCTTGELLGFDYWGQGTLVTVSS VL: DIVMTQSPLSLPVTPGEPASISCRSGQSLLHSNGFNCLAWYLQKPGQSPQLLIYLGSNRASGVPDRFSGSGSGTDFTLKISRVEAEDVGVYYCMQTLQTPITFGQGTRLEIK", "recorded-result": 100}
{"binder": "STLX2007 (antibody, V domains shown, Purified from hybridoma of immunized Alivamab mice; intact IgG; captured on anti-mouse IgG Fc sensors in Octet; kappa light chain; also called 74804_07K10A) VH: QVQLLQSGAEVKKPGSSVKVSCRASGGTFSIYAIDWVRQAPGQGLEWMGGIIPISGTENSAQNFQDRITITADKSTNTAYMELSSLRSEDTAVYYCARNGATSDAFDIWGQGTMVTVSS VL: EIVLTQSPGTLSLSPGERATLSCRASLSVSSNYLAWFQQRPGQAPRLLIYGVSRRATGIPDRFSGSGSGTDFTLTISRLEPEDFAVYYCQQYGSSPLTFGGGTKVEIK", "recorded-result": 100}
{"binder": "STLX2012 (antibody, V domains shown, Purified from hybridoma of immunized Alivamab mice; intact IgG; captured on anti-mouse IgG Fc sensors in Octet; kappa light chain; also called 74804_12A21B) VH: QVQLLQSGAEVKKPGSSVKVSCKASGGTFSIYAIDWVRQAPGQGLEWMGGIIPIFGTANSAQKFQGRVTITADKSTSTAYMELSSLRSEDTAVYYCARNGATSDAFDMWGQGTMVTVSS VL: EIVLTQSPGTLSLSPGERATLSCRASLSVSSNYLAWFQQRPGQAPRLLIHGVSRRATGIPDRFSGSGSGTDFTLTISRLEPEDFAVYYCQQYGSSPLTFGGGTKVEIK", "recorded-result": 100}

Please report the recorded Max % Inhibition at 200 nM, HEK-BlueIL1β NFκB Reporter Assay for STLX2029 (antibody, V domains shown, Purified from hybridoma of immunized Alivamab mice; intact IgG; captured on anti-mouse IgG Fc sensors in Octet; kappa light chain; also called 74804_29D13A) VH: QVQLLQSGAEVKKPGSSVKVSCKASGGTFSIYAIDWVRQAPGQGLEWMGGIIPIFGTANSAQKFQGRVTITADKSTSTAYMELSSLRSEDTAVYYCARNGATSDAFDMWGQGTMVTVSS VL: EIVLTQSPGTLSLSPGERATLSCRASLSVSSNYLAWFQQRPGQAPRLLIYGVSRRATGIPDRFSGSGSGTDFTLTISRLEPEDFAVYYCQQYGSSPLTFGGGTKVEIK .
99

Please report the recorded Max % Inhibition at 200 nM, HEK-BlueIL1β NFκB Reporter Assay for STLX2018 (antibody, V domains shown, Purified from hybridoma of immunized Alivamab mice; intact IgG; captured on anti-mouse IgG Fc sensors in Octet; kappa light chain; also called 74804_18L05A) VH: QVQLVQSGAEVKKPGASVKVSCKTSGYTFTSCCMHWVRQAPGQGLEWMGIINPSVGSTSYAQKFQGIVTMTRDTSTSTVYMELSSLRSEDTAVYYCAVDSSGSRYYYGMDVWGQGTTVTVSS VL: EIVMTQSPATLSVSPGERATLSCRASQSVRSNLAWYQQRPGQAPRLLIYGTSTRATGIPARFSGSGSGTEFTLTISSLQSEDFAVYYCQQYNYWPYTFGQGTKLEIK .
99
